Test: Single dose pharmacokinetics, rat
Assay type: in vivo, Sprague-Dawley rat
Conditions: male, Sprague-Dawley, plasma; S-D rat, 0.3 mg/kg Compound 1, oral
MEASURE_NAME: Tmax (min)
# output: bare number, implied unit min

Given the compound C(=C\[C@H]1CCNC1)/c1cncnc1 [Compound 1] , what is its reported Tmax?
30

---

Test: Solubility in aqueous solutions
Type: physicochemical
Settings: 0.1N HCl, simulated gastric fluid
MEASURE_NAME: solubility

For the compound shown here, C(=C\[C@H]1CCNC1)/c1cncnc1 [Compound 1] , give the reported solubility.
> 10000 µg/mL

---

Assay: Single dose pharmacokinetics, mouse
Assay type: in vivo, Swiss mouse
Details: plasma; Swiss mouse, 1.0 mg/kg Compound 1, oral
MEASURE_NAME: Tmax (min)
Write it as a number; the unit min goes unstated.

// lookup Tmax for C(=C\[C@H]1CCNC1)/c1cncnc1
10

---

Assay: Single dose pharmacokinetics, rat
Format: in vivo, Sprague-Dawley rat
Conditions: Sprague-Dawley, plasma; S-D rat, 30 mg/kg [14C]-Compound 1, oral, t = 168 h; read-out: AUC0-1
MEASURE_NAME: AUC(0-t)
A complete answer gives the number and then names the unit.

Which AUC(0-t) is listed for C(=C\[C@H]1CCNC1)/c1cncnc1 ?
3310 ng·h/mL

---

Experiment: 13-week repeat-dose oral toxicity in Cynomolgus monkeys
Format: in vivo, Cynomolgus monkey
Conditions: male, cynomolgus monkey, plasma, po; males, at the NOAEL (30 mg/kg)
MEASURE_NAME: AUC

Please give the measured AUC for this compound: C(=C\[C@H]1CCNC1)/c1cncnc1
1670 ng·h/mL

---

Experiment: 7-day pilot intranasal toxicity and toxicokinetic study in rats
Details: male, rat, plasma, inhaled or intranasal, 0.9 mg/day, Tmax, Male, Day 7, 0.9 mg/day (0.5%), intranasal TID
MEASURE_NAME: Tmax (h)
Field format: number, assumed h, no unit text.

I have this compound here, C(=C\[C@H]1CCNC1)/c1cncnc1 [Compound 1] , and I need its recorded Tmax.
12.1

---

Molecular target: α4β2 nicotinic acetylcholine receptor (Rattus norvegicus, UniProt P09483+P12390)
Construct: from tissue; host or cells: rat brain cortical membranes
Sequence (P09483 31-630): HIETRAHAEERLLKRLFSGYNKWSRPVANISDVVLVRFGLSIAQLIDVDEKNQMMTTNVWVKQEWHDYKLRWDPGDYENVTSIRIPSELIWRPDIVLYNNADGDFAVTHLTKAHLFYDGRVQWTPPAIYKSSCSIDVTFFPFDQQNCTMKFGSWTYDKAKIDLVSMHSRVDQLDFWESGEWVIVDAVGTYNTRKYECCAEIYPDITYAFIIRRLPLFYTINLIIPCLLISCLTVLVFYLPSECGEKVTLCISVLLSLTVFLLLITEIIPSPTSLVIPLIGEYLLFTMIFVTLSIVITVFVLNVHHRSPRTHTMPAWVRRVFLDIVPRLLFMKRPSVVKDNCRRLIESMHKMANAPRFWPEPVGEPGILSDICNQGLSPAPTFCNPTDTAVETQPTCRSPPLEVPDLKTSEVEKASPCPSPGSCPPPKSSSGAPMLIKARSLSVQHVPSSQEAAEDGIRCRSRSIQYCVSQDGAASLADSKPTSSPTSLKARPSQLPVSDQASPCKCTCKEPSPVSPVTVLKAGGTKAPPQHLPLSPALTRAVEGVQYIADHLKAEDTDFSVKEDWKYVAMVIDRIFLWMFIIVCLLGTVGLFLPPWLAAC
Sequence (P12390 25-500): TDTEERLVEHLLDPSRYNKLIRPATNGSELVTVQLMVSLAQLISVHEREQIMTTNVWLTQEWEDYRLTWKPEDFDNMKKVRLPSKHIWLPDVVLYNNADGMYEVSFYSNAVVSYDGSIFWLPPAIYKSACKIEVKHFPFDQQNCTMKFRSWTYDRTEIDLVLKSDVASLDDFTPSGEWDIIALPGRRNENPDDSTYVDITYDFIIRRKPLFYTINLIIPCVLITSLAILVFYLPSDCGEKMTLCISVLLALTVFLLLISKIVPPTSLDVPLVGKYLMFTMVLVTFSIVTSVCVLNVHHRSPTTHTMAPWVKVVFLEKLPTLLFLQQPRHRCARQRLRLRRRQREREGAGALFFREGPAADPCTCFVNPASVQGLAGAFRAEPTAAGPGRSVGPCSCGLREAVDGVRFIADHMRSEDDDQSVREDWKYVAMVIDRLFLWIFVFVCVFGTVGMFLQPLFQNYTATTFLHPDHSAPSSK
Assay: Receptor binding α4β2, inhibition of [3H]-(S)-nicotine binding, rat brain membranes
Conditions: Rat a4b2, assay and tissue type not given
MEASURE_NAME: pKi
Note: pKi values are expressed as the negative base-10 logarithm of concentration in M.

So what's the measured pKi for this one? C(=C\[C@H]1CCNC1)/c1cncnc1
7.47

---

Assay: 7-day pilot intranasal toxicity and toxicokinetic study in rats
Settings: male, rat, plasma, inhaled or intranasal, 3.6 mg/day, Tmax, Male, Day 7, 3.6 mg/day (2%), intranasal TID
MEASURE_NAME: Tmax (min)
I only need the number, in min, no unit after it.

Quick one: Tmax for C(=C\[C@H]1CCNC1)/c1cncnc1 ?
4.98

---

Target: rat ganglion receptors α3β4 (Rattus norvegicus, UniProt P04757+P12392)
Construct: endogenous in cells; host or cells: PC-12 cells (per the earlier reading)
Sequence (P04757 26-499): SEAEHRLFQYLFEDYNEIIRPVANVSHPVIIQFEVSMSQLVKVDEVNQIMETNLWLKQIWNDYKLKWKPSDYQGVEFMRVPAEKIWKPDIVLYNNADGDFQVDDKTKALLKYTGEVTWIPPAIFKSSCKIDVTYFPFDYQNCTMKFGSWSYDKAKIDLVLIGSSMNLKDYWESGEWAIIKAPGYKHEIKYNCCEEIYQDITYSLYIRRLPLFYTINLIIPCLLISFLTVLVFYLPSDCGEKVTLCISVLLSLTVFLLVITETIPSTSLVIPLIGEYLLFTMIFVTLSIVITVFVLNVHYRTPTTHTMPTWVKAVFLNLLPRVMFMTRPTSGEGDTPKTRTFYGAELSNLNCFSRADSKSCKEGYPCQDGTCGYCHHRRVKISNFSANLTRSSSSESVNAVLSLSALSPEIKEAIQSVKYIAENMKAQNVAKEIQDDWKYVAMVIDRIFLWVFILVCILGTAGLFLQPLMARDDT
Sequence (P12392 21-495): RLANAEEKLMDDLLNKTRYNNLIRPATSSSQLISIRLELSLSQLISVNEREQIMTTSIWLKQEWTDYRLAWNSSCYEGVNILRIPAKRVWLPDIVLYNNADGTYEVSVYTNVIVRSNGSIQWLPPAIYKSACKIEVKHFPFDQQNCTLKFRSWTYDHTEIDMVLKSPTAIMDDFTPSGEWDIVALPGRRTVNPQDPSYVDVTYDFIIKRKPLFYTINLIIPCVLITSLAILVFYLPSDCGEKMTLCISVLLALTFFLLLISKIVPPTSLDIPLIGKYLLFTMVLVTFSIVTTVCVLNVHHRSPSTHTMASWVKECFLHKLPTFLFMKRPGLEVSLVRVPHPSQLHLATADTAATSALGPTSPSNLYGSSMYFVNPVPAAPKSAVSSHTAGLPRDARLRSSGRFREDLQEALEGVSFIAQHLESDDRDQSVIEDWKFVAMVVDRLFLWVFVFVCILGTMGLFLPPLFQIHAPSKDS
Assay: Receptor function ganglionic receptors (rat), PC-12 cells
Type: cell-based
Settings: Rat ganglion-type (a3b4*), Ca++ Flux
MEASURE_NAME: EC50 (µM)
Response body: numeric value in µM, unit text excluded.

Entry C(=C\[C@H]1CCNC1)/c1cncnc1 : reported EC50 = ?
53
